experiment: Serum biochemical factors after intraperitoneal injection; assay type: in vivo, mouse; details: 50 μg/mouse ip, blood 48 h after the injection; mean ± standard deviation
No end group written: not given here.
endpoint: Serum level of TBIL (mg/dL)
Give bare numbers, in mg/dL.

[[record]]
substance = "FFHHIFRGKVHVGKTIHRLVTG-NH2 [I9K-piscidin-1]"
uom = "mg/dL"
endpoint_value = 0.18


Provide each entry's Serum level of TBIL from the list below.
1. FFHHIFRGAVHVGKTIHRLVTG-NH2 [I9A-piscidin-1]
2. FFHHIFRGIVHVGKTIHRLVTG-NH2 [Piscidin-1, reference compound]
3. FFHHIFRGIVHVGKTAHRLVTG-NH2 [I16A-piscidin-1]
4. FFHHIFRGIVHVGKTKHRLVTG-NH2 [I16K-piscidin-1]

0.21
0.19
0.20
0.20

###

assay: Serum biochemical factors after intraperitoneal injection; assay type: in vivo, mouse; conditions: 100 μg/mouse ip, blood 48 h after the injection; mean ± standard deviation
No end group written: not given here.
Record form. Attribute: Serum level of UA. Fill in for each entry.
Answers are plain numbers, in mg/dL.

[[record]]
substance = "FFHHIFRGAVHVGKTIHRLVTG-NH2 [I9A-piscidin-1]"
endpoint_value = 0.87


Provide each entry's Serum level of UA from the list below.
1. FFHHIFRGKVHVGKTIHRLVTG-NH2 [I9K-piscidin-1]
2. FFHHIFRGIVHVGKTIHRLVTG-NH2 [Piscidin-1, reference compound]
3. FFHHIFRGIVHVGKTAHRLVTG-NH2 [I16A-piscidin-1]

1. 0.81
2. 0.53
3. 0.77

###

assay: Serum biochemical factors after intraperitoneal injection; assay type: in vivo, mouse; settings: 50 μg/mouse ip, blood 48 h after the injection; mean ± standard deviation
No end group written: not given here.
Record form. Attribute: Serum level of GPT. Fill in for each entry.
Give bare numbers, in U/L.

Look over these answered cases.
[[record]]
substance = "FFHHIFRGIVHVGKTKHRLVTG-NH2 [I16K-piscidin-1]"
endpoint_value = 6.43

[[record]]
substance = "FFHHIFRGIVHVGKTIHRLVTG-NH2 [Piscidin-1, reference compound]"
endpoint_value = 5.83

[[record]]
substance = "FFHHIFRGKVHVGKTIHRLVTG-NH2 [I9K-piscidin-1]"
endpoint_value = 6.26


Provide each entry's Serum level of GPT from the list below.
1. FFHHIFRGIVHVGKTAHRLVTG-NH2 [I16A-piscidin-1]
2. FFHHIFRGAVHVGKTIHRLVTG-NH2 [I9A-piscidin-1]

1: 5.92; 2: 6.67

###

assay: Serum biochemical factors after intraperitoneal injection; format: in vivo, mouse; conditions: 100 μg/mouse ip, blood 48 h after the injection; mean ± standard deviation
No end group written: not given here.
endpoint: Serum level of TBIL
Answer format: value, then unit.

Look over these answered cases.
[[record]]
substance = "FFHHIFRGIVHVGKTAHRLVTG-NH2 [I16A-piscidin-1]"
endpoint_value = "0.53 ± 0.08 mg/dL"

[[record]]
substance = "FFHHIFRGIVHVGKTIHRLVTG-NH2 [Piscidin-1, reference compound]"
endpoint_value = "0.27 ± 0.07 mg/dL"

[[record]]
substance = "FFHHIFRGKVHVGKTIHRLVTG-NH2 [I9K-piscidin-1]"
endpoint_value = "0.48 ± 0.10 mg/dL"


# input for lookup
Look at this substance and give its reported Serum level of TBIL. FFHHIFRGAVHVGKTIHRLVTG-NH2 [I9A-piscidin-1]
0.51 ± 0.09 mg/dL
